# experimental protocol: Half-life of HSA and of SABA1-4 with or without HSA in mice (ELISA, WinNonlin)
# Assay type: in vivo, Ncr nude female mice
# protocol conditions: with HSA vs without HSA, mice
parameter: increase in half life when co-injected with HSA

Form: molecule = SABA3.1: His-tagged SABA3 sequence (protein, His6 tag) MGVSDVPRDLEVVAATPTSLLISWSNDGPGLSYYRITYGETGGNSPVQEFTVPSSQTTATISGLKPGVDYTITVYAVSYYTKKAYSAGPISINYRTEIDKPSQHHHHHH ; increase in half life when co-injected with HSA = ~2 fold

Where do these numbers come from? They come from patent US9540424B2.
